Would you kindly list microsomal CLint at 0.5 h, 1 µM for each of these molecules?
# PROTOCOL_SUMMARY: in vitro
# TEST_PARAMETERS: mouse, liver microsomes
One number for each entry, in µL/min/mg.

Example results:
Enquiry: I am curious: what microsomal CLint at 0.5 h, 1 µM value has been reported for "Cc1ccc(S(=O)(=O)N(C)C)cc1NC(=O)[C@@H](CC1CCCCC1)NC(=N)NC(=O)Cc1ccc(F)c(F)c1" ?
Return: 264

Enquiry: Next record, please: "COc1ccc(CC(=O)NC(=N)N[C@H](Cc2ccccc2F)C(=O)Nc2cc(S(N)(=O)=O)ccc2C)cc1OC"
Return: 149

Enquiry: Same question, "CNS(=O)(=O)c1ccc(C)c(NC(=O)[C@H](NC(=N)NC(=O)Cc2ccc(OC)c(OC)c2)c2ccccc2)c1" this time
Return: 270

List the reported microsomal CLint at 0.5 h, 1 µM of each molecule below.
1. COc1ccc(CC(=O)NC(=N)N[C@H](CC2CC2)C(=O)Nc2cc(S(N)(=O)=O)ccc2C)cc1OC
2. CNS(=O)(=O)c1ccc(C)c(NC(=O)[C@@H](Cc2ccccc2)NC(=N)NC(=O)Cc2ccc(OC)c(OC)c2)c1
3. CNS(=O)(=O)c1ccc(C)c(NC(=O)[C@@H](CC2CCCCC2)NC(=N)NC(=O)Cc2ccc(Cl)c(Cl)c2)c1
4. COc1ccc(CC(=O)NC(=N)N[C@H](CSC)C(=O)Nc2cc(S(N)(=O)=O)ccc2C)cc1OC

Return:
[229, 149, 176, 197]
